tested on: HCC-2998 colon; test: NCI tumour cell line growth inhibition, 48 h; in the data active = GI50 below about 0.43 µM; inactive = the rest
Just give me one of these, please: True for active, False for inactive

Use these answered entries as a reference point.
1) Nc1nc(N)c(C=Nc2ccc(Br)cc2)c(Nc2ccc(Br)cc2)n1 = False
2) O=[N+]([O-])c1ccc(Oc2nc(Nc3ccc(O[C@H]4CO[C@H]5[C@@H]4OC[C@@H]5O)c(Cl)c3)ncc2F)c(Cl)c1 = False
3) CC(=O)c1c(CN(C)c2ccccc2)n([O-])c2ccccc2[n+]1=O = False
4) Nc1ccccc1.[C-]#[O+].[C-]#[O+].[C-]#[O+].[C-]#[O+].[C-]#[O+].[Cr] = False
5) Oc1ccc(O)c(-c2cc(-c3ccc(Cl)cc3)nn2-c2ccccc2)c1 = False
6) CCC(c1ccc(OC)cc1)C(CC)c1ccc(O)c(CN2CCN(C)CC2)c1 (stereo not drawn) = False
7) COc1cccc(/C=N/NC(=S)NC2CC3CCC2C3)c1O (stereo not drawn) = False
8) Cc1cc2cc3ccc(N(C)C)cc3nc2cc1N = True
9) Cc1ccc(/C=C2\CN(C(=O)C(Cl)Cl)C/C(=C\c3ccc(C)cc3)C2=O)cc1 = True
10) CCN(Cc1ccc(F)cc1)c1ccc(CO)c(C)c1 = False

[ask] Could you kindly confirm the outcome this assay logged for COc1cccc(-c2ccc3c(c2)C2CCN(Cc4ccccc4)C3C2)c1 (stereo not drawn) ?
[reply] False

[ask] Could you kindly confirm the outcome this assay logged for CC(=O)N1N=C(c2ccc(Nc3ccnc4cc(Cl)ccc34)cc2)CC1c1ccc(Cl)cc1 (stereo not drawn) ?
[reply] False

[ask] Could you kindly confirm the outcome this assay logged for COc1ccccc1C1=C(Nc2ccccc2)C(=O)NC1=O ?
[reply] False
